Values were extracted from patent US20190127480A1.

Target: T1, human CD3 expressed on cells (Jurkat cells, a CD3+ human T-cell line; human PBMC T cells) (human, UniProt P07766 23-207; P04234 22-171)
T1 construct: Cell-surface CD3 within the T cell receptor complex
T1 sequence (P07766 23-207 limits assumed, chain 1 of 2): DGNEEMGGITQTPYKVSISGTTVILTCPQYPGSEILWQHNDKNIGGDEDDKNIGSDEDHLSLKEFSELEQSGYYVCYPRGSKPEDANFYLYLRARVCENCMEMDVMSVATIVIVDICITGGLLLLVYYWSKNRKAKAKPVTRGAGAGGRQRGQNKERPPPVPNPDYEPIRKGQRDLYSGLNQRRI
T1 sequence (P04234 22-171 limits assumed, chain 2 of 2): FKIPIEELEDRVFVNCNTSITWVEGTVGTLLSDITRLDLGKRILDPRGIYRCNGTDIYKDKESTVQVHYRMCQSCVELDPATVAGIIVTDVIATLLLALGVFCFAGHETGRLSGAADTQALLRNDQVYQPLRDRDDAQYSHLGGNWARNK
Test: FACS on Jurkat cells
test-readout: pEC50
One number for each entry, as −log10 of the molar value.

Consider the reported pEC50 for these binders:
H2M3547N (antibody, mouse IgG2, V domains shown, H2M: mouse IgG2 Fc, human variable regions; divalent) VH: EAQLVESGGGLVQPGRSLRLSCTTSGFTFDDYTMHWVRQAPGKGLEWISDISWNGGTKGYADSVKGRFTISRDNAKNSLYLQMDSLRGEDTALYYCVKDKSGYGHFYFGLDVWGQGTTVTVSS VL: DIQMTQSPSSLTASVGDRVTFTCRASQSISRHLSWYQQKPGKAPKLLIYAASSLESGVPSRFSGSGSGTDFTLTISSLHPEDFATYYCQQSYSNPPITFGQGTRLEIK ... 8.57
H2M2711N (antibody, V domains shown, H2M: mouse IgG2 Fc, human variable regions; divalent) VH: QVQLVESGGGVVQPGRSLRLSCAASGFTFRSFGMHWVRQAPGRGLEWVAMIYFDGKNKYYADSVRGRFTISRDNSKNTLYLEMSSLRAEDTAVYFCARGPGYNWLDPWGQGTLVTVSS VL: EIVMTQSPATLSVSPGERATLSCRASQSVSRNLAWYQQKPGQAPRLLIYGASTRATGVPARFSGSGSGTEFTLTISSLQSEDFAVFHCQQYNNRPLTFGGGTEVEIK ... 8.94
H2M2691N (antibody, mouse IgG2, V domains shown, H2M: mouse IgG2 Fc, human variable regions; divalent) VH: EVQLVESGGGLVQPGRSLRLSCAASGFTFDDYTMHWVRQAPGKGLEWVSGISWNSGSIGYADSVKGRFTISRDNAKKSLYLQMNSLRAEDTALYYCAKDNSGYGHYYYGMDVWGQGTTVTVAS VL: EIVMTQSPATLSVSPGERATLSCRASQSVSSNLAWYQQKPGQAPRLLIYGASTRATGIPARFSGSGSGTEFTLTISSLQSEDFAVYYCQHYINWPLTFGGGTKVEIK ... 8.17

Okay, here is my list. What is pEC50 for each of these?
1. H1M2692N (antibody, mouse IgG1, V domains shown, H1M: mouse IgG1 Fc, human variable regions; divalent) VH: EVQLVESGGGLVQPGGSLRLSCAASGFSFDDYTMHWVRQPPGKGLEWVSGISWNSGSIGYADSVKGRFTISRDNAKNSLYLQMNSLRAGDTALYYCAKDNSGYGYYYYYGMDVWGQGTTVTVSS VL: EIVMTQSPATLSVSPGERATLSCRASQSVSSNLAWYQQKPGQAPRLLIYGASTRATGIPARFSGSGSGTEFTLTISSLQSEDFAVYYCQQYYNWPLTFGGGTKVEIK
2. H2M2862N (antibody, mouse IgG2, V domains shown, H2M: mouse IgG2 Fc, human variable regions; divalent) VH: QVQLVESGGGVVQPGRSLRLSCAASGFTFRSYGMHWVRQAPGKGLEWVAMIYYDGNNKKYADSVRGRFTISRDNSKNTLYLQMNSLRVEDTAVYFCARGPGYNWLDPWGQGTLVTVSS VL: EIVMTQSPATLSVSPGERATLSCRASQSVSRNLAWYQQKPGQAPRLLIYGASTRATDIPARFSGSGSGTEFILNISSLQSEDFALYYCQQYSNWPLTFGGGTEVEIK

[8.22, 8.11]
